Origin of the recorded values: ChEMBL document CHEMBL3400098

# Test system: Macaca mulatta
# assay.procedure: Bioavailability in rhesus monkey at 5 mg/kg, po and 2 mg/kg, iv
# conditions.used: in vivo
observable: bioavailability

Request: Input `CCOc1nc(NC(=O)C2(NC(=O)c3ccc4c(C5CCCC5)c(-c5ncc(Cl)cn5)n(C)c4c3)CCC2)ccc1/C=C/C(=O)O` , output reported bioavailability.
Result: 11%

---

Please respond with reported bioavailability for every item in the list.
# assay.procedure: Bioavailability in dog at 5 mg/kg, po and 2 mg/kg, iv
# Format: ADME, organism-based, Canis lupus familiaris
# conditions.used: in vivo
Numbers only, in %.

Request: Input `CCOc1cc(NC(=O)C2(NC(=O)c3ccc4c(C5CCCC5)c(-c5ncc(Cl)cn5)n(C)c4c3)CCC2)ccc1/C=C/C(=O)O` , output reported bioavailability.
Result: 29

Consider the record given below.
Request: Report bioavailability for `CCOc1nc(NC(=O)C2(NC(=O)c3ccc4c(C5CCCC5)c(-c5ncc(Cl)cn5)n(C)c4c3)CCC2)ccc1/C=C/C(=O)O`
Result: 40
